target: S. pyogenes SKKanGAS, kanamycin survival, BacTiterGlo, 6 h; assay: S. pyogenes SKKanGAS kanamycin growth inhibitors – SKKanGAS strain, luminescence, dose confirmation, streptokinase promoter inhibitor project, dose response (AID 1902);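 further: lower survival reflects blocked streptokinase promoter driving kanamycin resistance gene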
Calls of active or inactive are those of the source.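 How the source made its calls: active means EC50 no more than a set limit of log units above the highest dose; inactive means the rest.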
Please state which outcome applies, choosing from yes (1) = active, no (0) = inactive

// query Hello, I am checking results. What call was entered for `N#Cc1c(NC(=O)CSc2n[nH]c(Cc3ccccc3)n2)oc(-c2ccccc2)c1-c1ccccc1` ?
// result yes (1)

// query Returns: the outcome recorded for `O=C(Nc1cccc(NC(=O)c2ccc([N+](=O)[O-])o2)c1)c1ccco1` in this assay.
// result yes (1)

// query What classification did `Oc1ccc(/C=C/c2ccc3cccc(O)c3n2)cc1Br` end up with in this test?
// result yes (1)

// query Short answer needed: outcome of this test for `C[C@H]1CC[C@@]2(C)[C@@H](CC[C@@H]3[C@@H]2CC[C@]2(C)[C@@H](O)CC[C@@H]32)C1` ?
// result yes (1)

// query Record lookup: outcome of this test for `Brc1ccccc1C1Nc2cccc3cccc(c23)N1` ?
// result yes (1)

// query What did the test return for `O=C1/C(=C\c2cccc(O)c2O)SC(=S)N1Cc1ccccc1` ?
// result yes (1)

// query Dear colleague, could you share the recorded outcome for `COc1ccc(-c2nc(-c3ccc4c(c3)OCO4)[nH]c2-c2ccc(OC)cc2)cc1` when you have a moment?
// result yes (1)

// query How did this test come out for `Cc1nn2c(COc3ccc(NC(=O)c4ccccc4Cl)cc3)nnc2c2ccccc12` ?
// result yes (1)

// query Given COc1ccc(-c2nc(NC(=O)C3CC(=O)N(c4ccc5c(c4)OCCO5)C3)sc2C)cc1 (configuration not stated) , state the outcome it received in this test.
// result yes (1)

// query I would be grateful if you could indicate the recorded call for `Cc1cccc(C)c1OC(=O)C(c1ccccc1)c1ccccc1` .
// result yes (1)

// query // outcome(item) with item = `O=C(N/N=C/c1cc(Cl)cc([N+](=O)[O-])c1O)C(O)(c1ccccc1)c1ccccc1`
// result yes (1)

// query Per the assay record, what outcome was assigned to `CCN=C1S/C(=C\c2ccc(-c3cccc(C(=O)O)c3)o2)C(=O)N1CC` ?
// result yes (1)

// query For CCc1ccc2[nH]c(=O)c(C3C(C#N)=C(N)Oc4c3ccc3cccnc43)cc2c1 (configuration not stated) , what call appears in the results of this test?
// result yes (1)

// query Write down the call the test reported for this compound. Item: CC(Oc1ccc2ccccc2c1)C(=O)NNC(=S)NC(=O)c1ccco1 (configuration not stated)
// result yes (1)

// query What outcome does the record of this test show for COc1ccc(S(=O)(=O)N2CCOC2CNC(=O)C(=O)NCc2ccccc2Cl)cc1 (configuration not stated) ?
// result no (0)

// query For `O=c1cc(-c2ccccc2)nc2c(-c3ccccc3)c(C(F)(F)F)[nH]n12` , what call appears in the results of this test?
// result yes (1)

// query Could you kindly confirm the outcome this assay logged for O=C(NC(c1ccc(Cl)cc1)c1cc(Cl)c2cccnc2c1O)c1cccnc1 (configuration not stated) ?
// result yes (1)

// query Tell me the assay call for `C=CCn1c(NC(=O)c2ccc(C)cc2)nc2ccccc21` please.
// result yes (1)

// query // param item: `CCCc1cc(NCc2ccccn2)n2nc(C)c(-c3ccccc3)c2n1` ; yields the recorded call
// result yes (1)

// query Lab log entry: `CCCCN(CCCC)c1nc(-c2ccncc2)nc2ccccc12` — outcome as called in the assay?
// result yes (1)

// query For `COc1ccc(C(=O)NC(=S)NNC(=O)c2c(-c3ccccc3)noc2C)cc1OC` , what call appears in the results of this test?
// result yes (1)

// query Recorded test outcome, item `Cc1cc(C)n(-c2nc(SCC(=O)O)c3c4c(sc3n2)COC(C)(C)C4)n1`
// result yes (1)

// query Record request — test call for `CC(C)(C)c1ccc(OCC(=O)NNC(=S)NC(=O)c2ccco2)c(Br)c1`
// result yes (1)

// query Hi, sorry to bother you, what did the test record for `S=c1[nH]nc(-c2cc(-c3ccccc3)n[nH]2)n1/N=C/c1ccc(Br)s1` ?
// result yes (1)

// query GET /call?item= `COc1ccc(/C=C/C(=O)NC(=S)N2CCN(c3ccccc3OC)CC2)cc1` returns the recorded outcome of this test.
// result no (0)

// query What was the test verdict on `Cc1cc(C)n(-c2nc(Nc3ccccc3C)nc(-n3nc(C)cc3C)n2)n1` ?
// result yes (1)

// query Look up the recorded call for `Cc1ccccc1C(=O)Nc1scc(-c2ccc(Br)cc2)c1C(=O)O` in this test.
// result yes (1)

// query Outcome logged for `CC(C)Sc1cc(N2CCCC2)nc(-c2ccccc2)n1` in this assay:
// result yes (1)

// query Field: outcome | Entry: `CCOc1ccc(N(C)c2ccc(/C=C3/SC(=S)NC3=O)cc2)cc1`
// result yes (1)

// query Just curious, what result did CC(C)CN1C(=S)SC(C)(C)C1n1oc(=O)n(-c2ccc(Cl)cc2)c1=O (configuration not stated) get here?
// result yes (1)

// query Could you check what this test reported for O=C(Nc1nnc(C2COc3ccccc3O2)o1)c1ccc(F)cc1 (configuration not stated) ?
// result yes (1)

// query Please let me know the test result on file for `Cc1cc(C)c(OCC(=O)Nc2ccccc2N2CCCCC2)c(C)c1` .
// result yes (1)

// query Check the results log: what was the call for `Cc1ccc(-c2cc(-c3ccccc3)nc(N(C)N)n2)cc1` ?
// result yes (1)

// query # outcome recorded in this test, key = CC1Oc2cc3oc4c(O)c(O)ccc4c(=O)c3c(O)c2C1(C)C (configuration not stated)
// result yes (1)

// query Each compound tested received a call. Report the one for `Cc1ccc(-n2c(O)c(C=Nc3ccccc3-c3n[nH]c(=S)[nH]c3=O)c3ccccc3c2=O)cc1C` .
// result yes (1)

// query Which outcome did this test record for the compound `O=C(NCC1(N2CCCCC2)CCCCC1)c1cccc(NS(=O)(=O)c2ccccc2)c1` ?
// result no (0)

// query Status in this test for `CC[n+]1c(/C=C2\Sc3ccccc3N2C)ccc2cccc(C)c21` ?
// result yes (1)

// query For CC1(C)S[C@@H]2[C@H](NC(=O)COc3ccccc3)C(=O)N2C1C(=O)OCc1cc2ccccc2n1S(=O)(=O)c1ccccc1 (some centres not stated) , which call appears in the assay record?
// result yes (1)

// query Recorded test outcome, item `Cc1cccc(C)c1NC(=O)CN(C)CC(=O)Nc1sc2c(c1C(N)=O)CCC2`
// result no (0)

// query GET /call?item= `COCCn1c(SCC(=O)Nc2ccc(F)cc2)nc2c([nH]c3ccccc32)c1=O` returns the recorded outcome of this test.
// result no (0)

// query Give the logged outcome of this assay for the following compound: `CCOC(=O)c1sc(NC(=O)Nc2ccc(Cl)cc2)cc1C`
// result yes (1)

// query Per the records of this test, what outcome belongs to CCOC(=O)c1c(NC(=S)NCCc2ccccc2)sc2c1CC(C(C)C)OC2 (configuration not stated) ?
// result yes (1)

---

Kindly state EC50 for each of the entries shown.
target: S. pyogenes SKKanGAS, kanamycin survival, BacTiterGlo, 6 h; test: S. pyogenes SKKanGAS kanamycin growth inhibitors – SKKanGAS strain, luminescence, dose confirmation, streptokinase promoter inhibitor project, dose response (AID 1902);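 further: lower survival reflects blocked streptokinase promoter driving kanamycin resistance gene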

// query What does the record list as EC50 for COc1cccc(-c2nc(N3CC(C)CC(C)C3)c3ccccc3n2)c1O (stereo unspecified) ?
// result 3.05 µM

// query Need EC50 of `CCOc1ccc(NC(=O)c2c(NC(=O)CNCCN3CCOCC3)sc3c2CCC3)cc1` , thanks.
// result 1.1 µM

// query For the compound `CC(=O)c1sc(N/N=C\c2c(O)ccc3ccccc23)nc1C` , what EC50 is on record?
// result 4.08 µM

// query Fill in: EC50 of `CCOC(=O)c1sc(NC(=O)CNCc2ccccn2)c(C(=O)OCC)c1C` is ___
// result < 0.06 µM

// query Tell me the measured EC50 of `O=C(Nc1nc2ccc(F)cc2s1)c1ccccn1` , please.
// result 0.694 µM

// query # query: EC50 of entry `CCOc1ccccc1NC(=O)c1nc(S(=O)(=O)Cc2cccc(C)c2)ncc1Cl`
// result 11.1 µM

---

target: S. pyogenes SKKanGAS, kanamycin survival, BacTiterGlo, 6 h; test: S. pyogenes SKKanGAS kanamycin growth inhibitors – SKKanGAS strain, luminescence, dose confirmation, streptokinase promoter inhibitor project, dose response (AID 1902);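 further: lower survival reflects blocked streptokinase promoter driving kanamycin resistance gene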
Observation type: pEC50
Note on units: pEC50 is unitless, being -log10 of a concentration expressed in mol/L.

// query What does the data say about its pEC50? Entry: `CCCCCCC(=O)N/N=C/c1c(O)n(CCCC)c(=S)[nH]c1=O`
// result 5.67

// query Recorded pEC50 for `O=C1/C(=C\c2cc([N+](=O)[O-])ccc2O)SC(=S)N1Cc1ccc(Cl)cc1` , please?
// result 5.66

// query Endpoint output: pEC50 of `Cc1cccc(C(=O)NNC(=O)c2c(O)c3ccccc3n(C)c2=O)c1` . Value?
// result 5.16

// query Form field: reported pEC50 of `c1ccc(N(c2ccccc2)c2nc(N3CCCC3)nc(-n3ccnc3)n2)cc1`
// result 5.21

// query Which value of pEC50 has been reported for `Cc1cc(=O)c(C(=O)O)cn1Nc1ccc(Cl)cc1` in the records?
// result 5.63

// query Entry `CC(C)=CCc1c(O)c(CC=C(C)C)c2occ(-c3ccc(O)cc3)c(=O)c2c1O` has what pEC50?
// result 5.73

// query Request the reported pEC50 associated with `Cc1cc(C)c(CSc2ncc(-c3ccc([N+](=O)[O-])cc3)[nH]2)c(C)c1`
// result 5.38

// query Using the record for `CCOC(=O)c1nn(-c2cccc(OC)c2)c2nc(Nc3ccccc3)cc(=O)n12` , report its pEC50.
// result 5.38

// query Query (compound): `Cc1cc(NCc2ccccn2)n2nc(C)c(-c3ccc(Cl)cc3)c2n1` ; field requested: pEC50
// result 5.36

// query // pEC50 lookup, key: `CCN(c1ccccc1)S(=O)(=O)c1ccc(C(=O)Nc2nnc(-c3ccco3)o2)cc1`
// result 5.69

// query Field request: pEC50 | item: `CC(=O)Nc1ccc(NC(=O)CSc2nnc(NC(=O)c3ccc(Br)o3)s2)cc1`
// result 5.57

// query Using the record for `Cc1ccc(Nc2nc(N/N=C\c3ccc4c(c3)OCO4)nc(N3CCOCC3)n2)cc1` , report its pEC50.
// result 5.35

// query Entry COc1ccc(Cl)cc1C(Nc1cccnc1)c1ccc2cccnc2c1O (stereo unspecified) : reported pEC50 = ?
// result 5.20

// query Request the reported pEC50 associated with `Cc1ccc(/C=C2/Sc3ccc(C(=O)N4CCN(c5ccccn5)CC4)cc3NC2=O)cc1`
// result 5.72

// query Please report the recorded pEC50 for `CC(=O)c1c(C)[nH]c(C(=O)Nc2nc(-c3ccc(-c4ccccc4)cc3)cs2)c1C` .
// result 5.38

// query Reported pEC50 for `CN(C(=O)CSc1nc(-c2ccc(C(C)(C)C)cc2)c(C#N)c(=O)[nH]1)C1CCCCC1` : what is it?
// result 5.87

// query Given the entry `Cc1nn(C(=O)c2cccnc2)c(C)c1Sc1ccc(Br)cc1` , report its measured pEC50.
// result 5.36

// query Suppose we examine the compound `C/C(=N\NC(=O)c1ccc(Cl)cc1)c1ccccn1` ; what pEC50 value has been reported?
// result 5.83

// query Dear colleague, I am looking for the recorded pEC50 of the following compound: `CCC1=NN2C(=N)/C(=C\c3cccn3-c3ccc(C)c(C)c3)C(=O)N=C2S1`
// result 5.41

// query What value of pEC50 has been reported for the following compound? `Cc1ccc(Nc2nc3ccccc3[nH]2)nc1`
// result 5.89

// query State the recorded pEC50 for this entry: `CCOC(=O)c1ccc(NC(=O)c2nc(S(=O)(=O)Cc3ccccc3)ncc2Cl)cc1`
// result 5.05
